Listed here: items and their measured pKi.
target: UniProt:P50391; test: Displacement of [3H](2R,7R)-10 from human NPY Y4 receptor expressed in CHO cells co-expressing Gqi5-mtAEQ after 90 mins in presence of sodium-free HEPES buffer by liquid scintillation counting; format: cell-based
Sequence (P50391 whole entry): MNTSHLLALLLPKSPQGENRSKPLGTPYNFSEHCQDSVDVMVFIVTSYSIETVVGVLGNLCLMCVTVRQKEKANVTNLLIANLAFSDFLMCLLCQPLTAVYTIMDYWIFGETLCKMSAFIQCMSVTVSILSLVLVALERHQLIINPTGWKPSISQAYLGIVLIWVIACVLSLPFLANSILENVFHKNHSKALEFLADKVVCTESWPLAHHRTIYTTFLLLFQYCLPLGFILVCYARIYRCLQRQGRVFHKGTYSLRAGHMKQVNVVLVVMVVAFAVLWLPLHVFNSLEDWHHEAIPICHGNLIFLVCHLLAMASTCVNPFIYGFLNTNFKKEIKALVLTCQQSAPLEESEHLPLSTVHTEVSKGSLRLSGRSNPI
Numbered stars: 1 amine (or outer) side, 2 acyl side, 3 side chain; on linkers, the order of the positions; unused ones are H or OH. Bridge positions count the residues as written; N and C are the ends. Square brackets hold non-standard residues; d marks the D form. Peptide text beside a SMILES is read from it. I, II: the chains in the order shown. X2 = NCCCCNC(=O)/N=C(\N)NCCC[C@H](N[*:1])C(=O)[*:2]; Suberoyl = O=C(CCCCCCC(=O)[*:2])[*:1]
To interpret pKi, take it as minus log10 of a concentration measured in moles per litre.

Check out these entries, answers already filled in.
| compound | target_or_test_system | metric | observed_value |
| --- | --- | --- | --- |
| CC(C)C[C@H](NC(=O)[C@H](CCCNC(=N)N)NC(=O)[C@H](Cc1ccc(O)cc1)NC(=O)CCCCCCC(=O)N[C@@H](Cc1ccc(O)cc1)C(=O)N[C@@H](CCCNC(=N)N)C(=O)N[C@@H](CC(C)C)C(=O)N[C@@H](CCCNC(=N)N)C(=O)N[C@@H](Cc1ccc(O)cc1)C(N)=O)C(=O)N[C@@H](CCCNC(=N)N)C(=O)N[C@@H](Cc1ccc(O)cc1)C(N)=O (I: YRLRY-NH2 / II: YRLRY-NH2; linker I:N-II:N via Suberoyl) | UniProt:P50391 | pKi | 8.46 |
| CCC(=O)N[C@@H](CCCC[C@H](N)C(=O)N[C@@H](Cc1ccc(O)cc1)C(=O)N[C@@H](CCCNC(=N)N)C(=O)N[C@@H](CC(C)C)C(=O)N[C@@H](CCCNC(=N)N)C(=O)N[C@@H](Cc1ccc(O)cc1)C(N)=O)C(=O)N[C@@H](Cc1ccc(O)cc1)C(=O)N[C@@H](CCCNC(=N)N)C(=O)N[C@@H](CC(C)C)C(=O)N[C@@H](CCCNC(=N)N)C(=O)N[C@@H](Cc1ccc(O)cc1)C(N)=O | UniProt:P50391 | pKi | 9.06 |
| CC(C)C[C@H](NC(=O)[C@H](C)NC(=O)[C@H](Cc1ccc(O)cc1)NC(=O)CCCCCCC(=O)N[C@@H](Cc1ccc(O)cc1)C(=O)N[C@@H](CCCNC(=N)N)C(=O)N[C@@H](CC(C)C)C(=O)N[C@@H](CCCNC(=N)N)C(=O)N[C@@H](Cc1ccc(O)cc1)C(N)=O)C(=O)N[C@@H](CCCNC(=N)N)C(=O)N[C@@H](Cc1ccc(O)cc1)C(N)=O (I: YALRY-NH2 / II: YRLRY-NH2; linker I:N-II:N via Suberoyl) | UniProt:P50391 | pKi | 7.92 |
| CC(C)C[C@H](NC(=O)[C@H](CCCNC(=N)N)NC(=O)[C@H](Cc1ccc(O)cc1)NC(=O)[C@@H](N)CCCC[C@H](N)C(=O)N[C@@H](Cc1ccc(O)cc1)C(=O)N[C@@H](CCCNC(=N)N)C(=O)N[C@@H](CC(C)C)C(=O)N[C@@H](CCCNC(=N)N)C(=O)N[C@@H](Cc1ccc(O)cc1)C(N)=O)C(=O)N[C@@H](CCCNC(=N)N)C(=O)N[C@@H](Cc1ccc(O)cc1)C(N)=O | UniProt:P50391 | pKi | 8.64 |
| CC(C)C[C@H](NC(=O)[C@H](CCCNC(=N)N)NC(=O)[C@H](Cc1ccc(O)cc1)NC(=O)C(N)CCCCC(N)C(=O)N[C@@H](Cc1ccc(O)cc1)C(=O)N[C@@H](CCCNC(=N)N)C(=O)N[C@@H](CC(C)C)C(=O)N[C@@H](CCCNC(=N)N)C(=O)N[C@@H](Cc1ccc(O)cc1)C(N)=O)C(=O)N[C@@H](CCCNC(=N)N)C(=O)N[C@@H](Cc1ccc(O)cc1)C(N)=O (some centres undefined) | UniProt:P50391 | pKi | 8.97 |

Query (compound): CC(C)C[C@H](NC(=O)[C@H](CCCNC(=N)N)NC(=O)[C@H](Cc1ccc(O)cc1)NC(=O)CCCCCCC(=O)N[C@@H](Cc1ccc(O)cc1)C(=O)N[C@@H](CCCN/C(N)=N/C(=O)NCCCCN)C(=O)N[C@@H](CC(C)C)C(=O)N[C@@H](CCCNC(=N)N)C(=O)N[C@@H](Cc1ccc(O)cc1)C(N)=O)C(=O)N[C@@H](CCCNC(=N)N)C(=O)N[C@@H](Cc1ccc(O)cc1)C(N)=O (I: Y[X2]LRY-NH2 / II: YRLRY-NH2; linker I:N-II:N via Suberoyl) ; field requested: pKi
8.92

What measured pKi goes with CC(C)C[C@H](NC(=O)[C@H](CCCNC(=N)N)NC(=O)[C@H](Cc1ccc(O)cc1)NC(=O)CCCCCCC(=O)N[C@@H](Cc1ccc(O)cc1)C(=O)N[C@@H](CCCNC(=N)N)C(=O)N[C@@H](CC(C)C)C(=O)N[C@@H](CCCNC(=N)N)C(=O)N[C@@H](Cc1ccc(O)cc1)C(N)=O)C(=O)N[C@@H](C)C(=O)N[C@@H](Cc1ccc(O)cc1)C(N)=O (I: YRLAY-NH2 / II: YRLRY-NH2; linker I:N-II:N via Suberoyl) ?
7.96
